Each recorded value in this set is attributed to patent US20100080770A1.

// pIC50 lookup, one value per entry
target or system: HCV NS3/4A protease complex (Hepatitis C virus genotype 1a, UniProt P27958, C1454S/C1711G)
Construct: recombinant HCV NS3/4A protease complex (amino acids 1027 to 1711); inferred from the pET21b vector and Ni-NTA purification; made in house; host or cells: Escherichia coli BL21 (DE3)
Sequence (P27958 1027-1711 C1454S/C1711G, one chain of several): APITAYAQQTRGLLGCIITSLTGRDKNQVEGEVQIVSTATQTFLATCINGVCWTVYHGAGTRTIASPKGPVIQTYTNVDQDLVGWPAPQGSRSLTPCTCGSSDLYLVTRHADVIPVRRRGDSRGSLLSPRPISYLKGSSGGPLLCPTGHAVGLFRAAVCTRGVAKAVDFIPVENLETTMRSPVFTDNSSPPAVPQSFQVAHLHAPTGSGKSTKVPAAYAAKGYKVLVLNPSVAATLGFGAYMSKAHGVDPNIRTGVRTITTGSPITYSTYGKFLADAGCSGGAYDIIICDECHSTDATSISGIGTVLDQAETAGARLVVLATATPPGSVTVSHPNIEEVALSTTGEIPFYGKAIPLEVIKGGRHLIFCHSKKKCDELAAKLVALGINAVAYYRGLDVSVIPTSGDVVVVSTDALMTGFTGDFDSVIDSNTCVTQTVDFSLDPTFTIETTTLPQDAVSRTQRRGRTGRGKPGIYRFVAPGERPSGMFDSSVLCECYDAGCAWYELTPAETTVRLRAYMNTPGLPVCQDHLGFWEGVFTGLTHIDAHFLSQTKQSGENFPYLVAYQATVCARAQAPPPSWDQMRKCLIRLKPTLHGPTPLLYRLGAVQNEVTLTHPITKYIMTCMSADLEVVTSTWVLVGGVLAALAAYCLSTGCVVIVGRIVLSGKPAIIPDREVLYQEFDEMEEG
assay summary: FRET peptide assay to monitor HCV NS3/4A proteolytic activity
Type: biochemical
test settings: HCV NS3/4A protease complex; strain not stated; class symbols; read-out: IC50
Source text: HCV NS3 protease complexes, derived from the BMS strain, H77 strain or J4L6S strain, were generated, as described below. These purified recombinant proteins were generated for use in a homogeneous assay (see below) to provide an indication of how effective compounds of the present disclosure would be in inhibiting HCV NS3 proteolytic activity. The H77 and J4L6S strains were used for production of recombinant NS3/4A protease complexes. […]
pIC50: −log10 of the molar value.
endpoint label: pIC50

molecular_string=C=C[C@@H]1C[C@]1(NC(=O)[C@@H]1C[C@]2(OC)CN1C(=O)[C@H](C(C)(C)C)NC(=O)OCC(C)(C)CCCCc1cc3cc2ccc3cc1OC)C(=O)NS(=O)(=O)C1CC1 test_result="8.00 to 9.00"
molecular_string=CC[C@@H]1C[C@]1(NC(=O)[C@@H]1C[C@]2(OC)CN1C(=O)[C@H](C(C)(C)C)NC(=O)OCC(C)(C)CCCCc1cc3cc2ccc3cc1OC)C(=O)NS(=O)(=O)C1CC1 test_result="7.92 to 7.96"
molecular_string=COc1cc2ccc3cc2cc1CCCCOC(=O)N[C@@H](C(C)(C)C)C(=O)N1C[C@@]3(OC)C[C@H]1C(=O)N[C@]1(C(=O)NS(=O)(=O)C2CC2)C[C@H]1C1CC1 test_result="7.92 to 7.96"
molecular_string=CO[C@@]12C[C@@H](C(=O)N[C@]3(C(=O)NS(=O)(=O)C4CC4)C[C@H]3C3CC3)N(C1)C(=O)[C@H](C(C)(C)C)NC(=O)OCCCCCCc1cc3cc2ccc3cc1N(C)C test_result="8.00 to 9.00"
